# TEST_SYSTEM: human TCRvβ (BIM0444) (human)
# Sequence (A0A0K0K1A5 22-114): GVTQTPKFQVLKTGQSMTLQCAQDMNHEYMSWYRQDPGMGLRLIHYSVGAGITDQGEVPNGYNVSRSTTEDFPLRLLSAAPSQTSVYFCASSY
# ASSAY_NOTES: SPR (Biacore): antibody captured via anti-human Fc on CM5, BIM0444 as analyte, 1:1 fit
OUTCOME_MEASURE: Kd (nM)
The figure you give is taken to be in nM; do not add the unit.

Input line: Could you share which Kd value was measured for A-H.64 (scFv) scFv: QVQLVQSGAEVKKPGSSVKVSCKASGHDFKLTYIHWVRQAPGQGLEWMGRVSAGSGNTKYNEKFKGRVTITADTSTSTAYMELSSLRSEDTAVYYCAVSYYSYDVLDYWGQGTTVTVSSGGGGSGGGGSGGGGSGGGGSDIQMTQSPSFLSASVGDRVTITCKASQNVADRVVWHQQKPGKAPKALIYSSSHRYKGVPSRFSGSGSGTEFTLTISSLQPEDFATYFCQQFKSYPLTFGQGTKLEIK ?
Output line: 0.486

Input line: Entry BJM0501 (scFv, part only; not given: Fc scaffold making it bivalent, part only) scFv, part: QVQLVQSGAEVKKPGSSVKVSCKASGHDFRLTYIHWVRQAPGQGLEWMGRISAGSGNVKYNEKFKGRVTITADTSTSTAYMELSSLRSEDTAVYYCAGSYYSYDVLDYWGQGTTVTVSSGGGGSGGGGSGGGGSGGGGSDIQMTQSPSFLSASVGDRVTITCKASQNVADRVAWYQQKPGKAPKALIYSSSHRYKGVPSRFSGSGSGTEFTLTISSLQPEDFATYFCQQFKSYPLTFGQGTKLEIK has what Kd?
Output line: 4.1
